Test system: NIH3T3
methodDescription: qHTS assay to identify novel small-molecules to repurpose for Merkel cell carcinoma treatment (AID 1296009); further: nearly all actives have a fitted effect of over 60% in size
studyConditions: MCC and control cell lines, CellTiter-Glo viability, 72 h; at 44.8 µM (top of the series) unless noted
Inconclusive results are not listed. Calls of active or inactive are those of the source. The call rests on the fitted dose curve; in most records, active means well fitted inhibition curve with a large enough effect; inconclusive means small, poorly fitted or top-dose-only effect; inactive means flat fitted curve, though single readings scatter.

{"molecule": "CC1=C2C(=O)C3[C@@H](CC=C4C[C@@H](O)CC[C@@]43C)[C@@H]2CC[C@]12O[C@@H]1C[C@H](C)CN[C@H]1[C@H]2C (stereo partly drawn)", "outcome": "inactive [at 17.4 µM]"}
{"molecule": "COC1CC(=O)C23C(=O)NC(CC(C)C)C2C(C)=C(C)C(OO)C3/C=C(\\C)CCC(O)C1O (stereo not drawn)", "outcome": "inactive [at 17.4 µM]"}
